System: MS2 coat protein
Experiment: apparent KD of MS2 coat protein; designed switch direction (-1 OFF switch, 1 ON switch): -1; higher = weaker reporter binding
Conditions: Eterna round: R95; input ligand: none
sequences and their reported apparent KD of MS2 coat protein
Reply with just the number (in nM).

Sequence string: CUGAGCAGACGGAGAUCCAACAUGAGGAUCACCCAUGUCUCAAAAGCUCUUUGCUCGUCUUAUCCUCCUCUGUUCUC [Leriedor] (puzzle: Sensor v3, turn-off variant 1)
Measure unit: nM
apparent KD of MS2 coat protein: 30.1

Sequence string: UUGGUUAUCUAUGGAAGUAACAUGAGGAUCACCCAUGUAUGUCUUGUUUUUUGUUCGUCAUAGGCCUUUUGUUUGGA [JR_SV3TOV1_Sub023] (puzzle: Sensor v3, turn-off variant 1)
Measure unit: nM
apparent KD of MS2 coat protein: 30.3

Sequence string: GAUUGACAUGAGGAUCACCCAUGUGAGGAUAUCGGCUGGACCGUGUUGGCUUCCGUCGCGAGAAGGCGCAUAGG [Exclusion 1 V42] (puzzle: Exclusion 1)
Measure unit: nM
apparent KD of MS2 coat protein: 46.4

Give recorded apparent KD of MS2 coat protein. GAUUAUGCGAGCUUUAGGGACAUGAGGAUCACCCAUGUUCGUCUUAUUGGUCUAGAUGCACUGACAUACCUAAAUCU [JMF 79] (puzzle: Sensor v3, turn-off variant 1)
16.3

Identify the reported apparent KD of MS2 coat protein for the following entry. UUGAGCAGACGGAGAUCCAACAUGAGGAUCACCCAUGUCUCAUAAGCUUUUUGUUCAUCUUAUUGUACCUUGGUGCU [Mat - Sensor v3 - turn-off var 1 - JL Mod - D23] (puzzle: Sensor v3, turn-off variant 1)
40.5

====

Tested on: MS2 coat protein
Assay: apparent KD of MS2 coat protein; designed switch direction (-1 OFF switch, 1 ON switch): -1; higher = weaker reporter binding
Settings: input ligand: FMN 200 uM
Measured apparent KD of MS2 coat protein, listed per entry for reference.
Supply the numeric figure in nM, leaving out any unit text.

# annotated cases, reported apparent KD of MS2 coat protein shown
Sequence string: AAGUUACAUGAGGAUCACCCAUGUGAGGAUAUGAGUCAGUCACGGUGACGUGGCUGACUCAGAAGGCACAUAGG [JL-ex1-4.42 salish99 mod] (Eterna round: R97, puzzle: Exclusion 1)
Observed measurement: 256
//
Sequence string: GAGAGAGACAUAGGAUAUUCACCCACACAUGAGGAAGAAGGAUGUAGACAUGAGGAUCACCCAUGUGGAUCACCCAUGUUUGUG [All by luck] (Eterna round: R96, puzzle: Exclusion NG 1)
Observed measurement: 22
//
Sequence string: UUAUUGUGAGGAUAUCCAAUAUAUGACAUGAGGAUCACCCAUGUUUCCACUCGUACCUCCGGAGAAGGCACUUAUA [Ex5 #47] (Eterna round: R97, puzzle: Exclusion 5)
Observed measurement: 28.6
//
Sequence string: UAACUACAUGUAGGAUAUGCGUGGCGAAGCUAUGCAGAAGGACAUGAGGAUCACCCAUGUUUUAGCGUCUGCGUACAGAUGCGU [JL ENG1 1.50] (Eterna round: R96, puzzle: Exclusion NG 1)
Observed measurement: 34.8
//
Sequence string: UUUGCAAGCUAAAGAUCCCACAUGAGGAUCACCCAUGUUGCUGCCGUGAGGUAGCAUUUAACUUUUGCUCGUCUUAU [JL TOV1 3.49] (Eterna round: R97, puzzle: Sensor, turn-off variant 1)
Observed measurement: 282
//
Sequence string: UGUACUAUGCGAGCUGACUUGCGUAGUGCAGCAGGUGAAACAUGAGGAUCACCCAUGUCCUCAUUUGCUCGUCUUAU [SL-sv3-2.02 JL mod] (Eterna round: R96, puzzle: Sensor v3, turn-off variant 2)
Observed measurement: 45.2
//
Sequence string: GAUCAUGCAGGAUAUACAUUAACCAUGAAAACAUGGAUCAAACAUGAGGAUCACCCAUGUAGAAGGGCAUGAUC [Omei Ex2 A21] (Eterna round: R97, puzzle: Exclusion 2)
Observed measurement: 46.6
//
Sequence string: GGCUUGUAAGGAUAUGCGAAGGGAAGGAGAGGGACAGAGAAGCAGAAGGUACAUGAGGAUCACCCAUGUAAGGG [AK-MS2ROC-r4-exclusion4-7] (Eterna round: R97, puzzle: Exclusion 4)
Observed measurement: 247
//
Sequence string: GGUACUCAAAGAGUACCAAUACGAACAUGAGGAUCACCCAUGUAGGAUAUGCUACUCAAAGAGUAGCAGAAGGAUAUGAUCCCU [Far Half Aptamer v12] (Eterna round: R96, puzzle: Exclusion NG 3)
Observed measurement: 211
//
Sequence string: ACAUGAGGAUCACCCAUGUCCGGCUGGUCCGUCUCGGCUGUCGAGGAUAUAGCUCGGUGUCCGCGCUAGAAGGCGGGAGCUGGC [Aenatbe mod 67] (Eterna round: R96, puzzle: Exclusion NG 3)
Observed measurement: 91.5

Print MS2 coat protein apparent KD of MS2 coat protein for CGGAGCGGCUUAGGAUAUGCUGGAAUAUCCCUGCUCCUCAGAACAUGAGGAUCACCCAUGUACUGGCAGAAGGGAGCUGCAGAG [Inxeedsoxe] (Eterna round: R96, puzzle: Exclusion NG 2) .
21.8

Tell me its apparent KD of MS2 coat protein on MS2 coat protein: UCCUUAGCGGUCAGGAUAUACACCCGUUUCUCCUUGUAGAAGGGACAUGAGGAUCACCCAUGUACAGUACAUCU [alecazam64] (Eterna round: R97, puzzle: Brourd's mod of Exclusion 4)
18.6

Check MS2 coat protein data and give apparent KD of MS2 coat protein for AGUACUAUCACGAAAGUGAUAGUACGAGGAGCAAGUGGAACAUGAGGAUCACCCAUGUCCUCAUCUGCUCGUCUUAU [salish99-s2-v2-x008] (Eterna round: R96, puzzle: Sensor v2, turn-off variant 2) .
13.5
